Listed binders paired with reported pKd
measured-on: T1, recombinant human activated Factor VII (FVIIa) (human, UniProt P08709 61-212; P08709 213-466, ten glutamate residues of the Gla domain may be gamma-carboxylated)
T1 construct: chains tethered by a disulfide bond; also called Factor VIIa; rFVIIa
T1 sequence 1: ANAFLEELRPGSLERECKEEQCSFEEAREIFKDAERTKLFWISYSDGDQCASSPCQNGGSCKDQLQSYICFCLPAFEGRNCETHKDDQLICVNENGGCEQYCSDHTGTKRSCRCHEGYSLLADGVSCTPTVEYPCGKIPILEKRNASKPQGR
T1 sequence 2: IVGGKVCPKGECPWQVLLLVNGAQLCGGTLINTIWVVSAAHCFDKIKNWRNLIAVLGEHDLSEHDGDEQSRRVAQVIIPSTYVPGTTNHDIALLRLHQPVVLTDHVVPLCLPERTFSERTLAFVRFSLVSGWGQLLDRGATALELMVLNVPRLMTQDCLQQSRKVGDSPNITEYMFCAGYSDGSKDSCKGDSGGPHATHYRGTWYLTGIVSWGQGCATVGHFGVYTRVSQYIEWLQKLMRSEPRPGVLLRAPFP
assay-remarks: BLI (Fortebio)
Please keep in mind that pKd is minus log10 of the molar concentration; only the number is needed.

q: I am curious: what pKd value has been reported for VH SEQ ID NO 314 / VL SEQ ID NO 470 (antibody, IgG4, V domains shown, humanized 11F2; IgG4 S228P/kappa) VH: QVQLQESGPGLVEPSDTLSLTCAVSGYSISSDSAWSWIRQPPGKGLEWIGYIQYSGSTNYNPSLKSRVTMSVDTSKNQFSLKLSSVTALDTAVYYCARSVNYYGNSFAVGPWGQGTLVTVSS VL: EIVLTQSPATLSLSPGERATLSCRASQGVSDYLHWYQQKPGQAPRLLIKYASQPATGIPARFSGSGSGTDFTLTISSLEPEDFAVYYCQNGHSFPLTFGQGTKLEIK ?
a: 7.70

q: Looking for the measured pKd of VH SEQ ID NO 578 / VL SEQ ID NO 486 (antibody, IgG4, V domains shown, humanized 11F2; IgG4 S228P/kappa) VH: QVQLQESGPGLVKPSDTLSLTCAVSGYSISSDSAWSWIRQPPGKGLEWIGYIQYSGSTNYNPSLKSRVTMSVDTSKNQFSLKLSSVTALDTAVYYCARSVNYYGNSFAVGPWGQGTLVTVSS VL: EIVLTQSPATLSLSPGERATLSCRASQGVSDYLHWYQQKPGQAPRLLIKYASQPATGIPARFSGSGSGTDFTLTISSLEPEDFGVYYCQNGHSFPLTFGQGTKLEIK , can you help?
a: 7.64
